From: ChEMBL document CHEMBL3627702

Test system: CYP1A2
Test: Induction of CYP1A2 mRNA expression in rat hepatic microsomes at 20 mg/kg, po QD for 4 days relative to control
Format: ADME, organism-based, Liver
Conditions: hepatic microsomes, read-out: FC
reported metric: fold induction at 96 h

compound: CC(C)Oc1ncc(-c2nc(-c3cccc4c3OCCNC4CCCC(=O)O)no2)cc1Cl (stereo in doubt; 6)
tested target: CYP1A2
numeric readout: 2

###

This listing pairs compounds with measured AUC.
Test: AUC in Sprague-Dawley rat at 15 mg/kg, po QD measured on day 1
Assay type: ADME, organism-based
Settings: in vivo

chemical smiles: Cc1c(-c2noc(-c3ccc(OC(C)C)c(C#N)c3)n2)ccc2c1CCN(C(CO)CO)CC2
AUC / ng·h/mL: 9100
//
chemical smiles: CC(C)Oc1ccc(-c2nc(-c3cccc4c3CCN(C(CO)CO)C4)no2)cc1C#N
AUC / ng·h/mL: 12100

###

Test system: CYP1A1
Assay: Induction of CYP1A1 gene expression in rat hepatic microsomes at 30 to 100 mg/kg, po QD for 7 days
Format: ADME, organism-based, Liver
Settings: read-out: FC
reported metric: fold induction at 168 h

chemical smiles: CC(C)Oc1ccc(-c2nc(-c3cccc4c3cnn4CCC(=O)O)no2)cc1Cl
tested target: CYP1A1
reported metric: fold induction at 168 h
numeric readout: 10000

###

Experiment: Cmax in Sprague-Dawley rat at 25 mg/kg, po QD measured on day 4
Assay type: ADME, organism-based
Parameters: dose 25 mg/kg, route oral
Conditions: in vivo

chemical smiles: Cc1c(-c2noc(-c3ccc(OC(C)C)c(C#N)c3)n2)ccc2c1OCCN(C(CO)CO)C2
unit name: µg/mL
Cmax: 1.14
//
chemical smiles: Cc1c(-c2noc(-c3ccc(OC(C)C)c(C#N)c3)n2)ccc2c1CCN(C[C@H](O)CO)CC2
unit name: µg/mL
Cmax: 0.87

###

Test: Lipophilicity, log D of the compound at pH 7.4
Assay type: physicochemical
Settings: buffer
This listing pairs compounds with measured logD.
reported metric: logD

chemical smiles: Cc1c(-c2noc(-c3cnc(OC(C)C)c(C#N)c3)n2)ccc2c1CCN(C(CO)CO)C2
reported metric: logD
numeric readout: 2.84
--
chemical smiles: CC(C)Oc1ccc(-c2nc(-c3ccc4c(c3)CCN(C(CO)CO)CC4)no2)cc1C#N
reported metric: logD
numeric readout: 2.78
--
chemical smiles: Cc1c(-c2noc(-c3ccc(OC(C)C)c(C#N)c3)n2)ccc2c1OCCN(C(CO)CO)C2
reported metric: logD
numeric readout: 2.86
--
chemical smiles: Cc1c(-c2noc(-c3ccc(OC(C)C)c(C#N)c3)n2)ccc2c1CCN(C(CO)CO)CC2
reported metric: logD
numeric readout: 2.64
--
chemical smiles: CC(C)Oc1ccc(-c2nc(-c3cccc4c3CCN(C(CO)CO)C4)no2)cc1C#N
reported metric: logD
numeric readout: 2.58
--
chemical smiles: Cc1c(-c2noc(-c3ccc(OC(C)C)c(C#N)c3)n2)cnc2c1CCN(C(CO)CO)C2
reported metric: logD
numeric readout: 2.15
--
chemical smiles: CC(C)Nc1ncc(-c2nc(-c3ccc4c(c3)CCN(C(CO)CO)CC4)no2)cc1C#N
reported metric: logD
numeric readout: 2.63
--
chemical smiles: Cc1c(-c2noc(-c3ccc(OC(C)C)c(C#N)c3)n2)ccc2c1CCN(C[C@H](O)CO)C2
reported metric: logD
numeric readout: 2.7
--
chemical smiles: Cc1c(-c2noc(-c3ccc(OC(C)C)c(C#N)c3)n2)ccc2c1CCN(C[C@@H](O)CO)CC2
reported metric: logD
numeric readout: 2.36

###

Test system: CYP1A2
Assay: Induction of CYP1A2 mRNA expression in human hepatocytes at 10 uM relative to control
Assay type: ADME, cell-based, Hepatocyte
Conditions: read-out: FC

chemical smiles: Cc1c(-c2noc(-c3ccc(OC(C)C)c(C#N)c3)n2)ccc2c1CCN(CCC(=O)O)C2
fold induction at 10 µM: 0.2
//
chemical smiles: CC(C)Oc1ccc(-c2nc(-c3cccc4c3cnn4CCC(=O)O)no2)cc1Cl
fold induction at 10 µM: 45
//
chemical smiles: CC(C)Oc1ccc(-c2nc(-c3cccc4c3OCCN(CCCC(=O)O)C4)no2)cc1Cl
fold induction at 10 µM: 0.6

###

This listing pairs compounds with measured Cmax.
Assay: Cmax in Sprague-Dawley rat at 24 mg/kg, po QD measured on day 4
Assay type: ADME, organism-based
Design: dose 24 mg/kg, route oral
Details: in vivo

chemical smiles: CC(C)Nc1ncc(-c2nc(-c3ccc4c(c3)CCN(C(CO)CO)CC4)no2)cc1C#N
Cmax [ng/mL]: 1220

chemical smiles: Cc1c(-c2noc(-c3cnc(NC(C)C)c(C#N)c3)n2)ccc2c1CCN(C(CO)CO)CC2
Cmax [ng/mL]: 1350

###

This listing pairs compounds with measured Cmax.
Test: Cmax in Sprague-Dawley rat at 30 mg/kg, po QD measured on day 1
Type: ADME, organism-based
Design: dose 30 mg/kg, route oral
Conditions: in vivo

chemical smiles: Cc1c(-c2noc(-c3ccc(OC(C)C)c(C#N)c3)n2)ccc2c1CCN(C[C@@H](O)CO)C2
unit name: ng/mL
Cmax: 720
--
chemical smiles: Cc1c(-c2noc(-c3ccc(OC(C)C)c(C#N)c3)n2)ccc2c1CCN(C(CO)CO)C2
unit name: ng/mL
Cmax: 440
--
chemical smiles: CC(C)Oc1ccc(-c2nc(-c3ccc4c(c3)CCN(C(CO)CO)CC4)no2)cc1C#N
unit name: ng/mL
Cmax: 1600
--
chemical smiles: Cc1c(-c2noc(-c3ccc(OC(C)C)c(C#N)c3)n2)ccc2c1CCN(C[C@H](O)CO)C2
unit name: ng/mL
Cmax: 770

###

Assay: Intrinsic clearance in rat hepatocytes by LC-MS/MS analysis
Details: read-out: CLH

chemical smiles: Cc1c(-c2noc(-c3ccc(OC(C)C)c(C#N)c3)n2)ccc2c1CCN(C[C@@H](O)CO)C2
CLint scaled [mL/min/kg]: 2.1

###

Assay: Dissociation constant, pKa of the compound
Format: physicochemical
Class t: pKa at least 8. Class f: pKa below 8.

chemical smiles: Cc1c(-c2noc(-c3ccc(OC(C)C)c(C#N)c3)n2)ccc2c1CCN(C[C@H](O)CO)CC2
answer label: t
//
chemical smiles: Cc1c(-c2noc(-c3cnc(NC(C)C)c(C#N)c3)n2)ccc2c1CCN(C(CO)CO)CC2
answer label: t
//
chemical smiles: CC(C)Oc1ccc(-c2nc(-c3cccc4c3CCN(C(CO)CO)C4)no2)cc1C#N
answer label: f
//
chemical smiles: Cc1c(-c2noc(-c3ccc(OC(C)C)c(C#N)c3)n2)ccc2c1CCN(C[C@@H](O)CO)C2
answer label: f
//
chemical smiles: Cc1c(-c2noc(-c3ccc(OC(C)C)c(C#N)c3)n2)ccc2c1OCCN(C(CO)CO)C2
answer label: f
//
chemical smiles: Cc1c(-c2noc(-c3ccc(OC(C)C)c(C#N)c3)n2)ccc2c1CCN(C[C@@H](O)CO)CC2
answer label: t
//
chemical smiles: Cc1c(-c2noc(-c3ccc(OC(C)C)c(C#N)c3)n2)ccc2c1CCN(C[C@H](O)CO)C2
answer label: f
//
chemical smiles: Cc1c(-c2nnc(-c3ccc(OC(C)C)c(C#N)c3)s2)ccc2c1CCN(C(CO)CO)C2
answer label: f
//
chemical smiles: Cc1c(-c2noc(-c3cnc(OC(C)C)c(C#N)c3)n2)ccc2c1CCN(C(CO)CO)C2
answer label: f

###

This listing pairs molecules with measured AUC/dose.
Test system: Rattus norvegicus
Experiment: Dose normalized AUC in Sprague-Dawley rat at 30 mg/kg, po QD measured on day 4
Format: ADME, organism-based
Details: in vivo
reported metric: AUC/dose (kg·min/L)

chemical smiles: Cc1c(-c2noc(-c3ccc(OC(C)C)c(C#N)c3)n2)ccc2c1CCN(C[C@@H](O)CO)C2
tested target: Rattus norvegicus
reported metric: AUC/dose
numeric readout: 15
//
chemical smiles: Cc1c(-c2noc(-c3ccc(OC(C)C)c(C#N)c3)n2)ccc2c1CCN(C[C@H](O)CO)C2
tested target: Rattus norvegicus
reported metric: AUC/dose
numeric readout: 9
//
chemical smiles: CC(C)Oc1ccc(-c2nc(-c3ccc4c(c3)CCN(C(CO)CO)CC4)no2)cc1C#N
tested target: Rattus norvegicus
reported metric: AUC/dose
numeric readout: 59
//
chemical smiles: Cc1c(-c2noc(-c3ccc(OC(C)C)c(C#N)c3)n2)ccc2c1CCN(C(CO)CO)C2
tested target: Rattus norvegicus
reported metric: AUC/dose
numeric readout: 16

###

Test system: CYP1A2
Assay: Induction of CYP1A2 mRNA expression in rat hepatic microsomes at 30 mg/kg, po QD for 7 days relative to control
Type: ADME, organism-based, Liver
Settings: read-out: FC
reported metric: fold induction at 168 h

chemical smiles: CC(C)Oc1ccc(-c2nc(-c3cccc4c3cnn4CCC(=O)O)no2)cc1Cl
numeric readout: 2

chemical smiles: CC(C)Oc1ccc(-c2nc(-c3ccc4c(c3)CCN(CCCC(=O)O)CC4)no2)cc1C#N
numeric readout: 2

chemical smiles: Cc1c(-c2noc(-c3ccc(OC(C)C)c(C#N)c3)n2)ccc2c1CCN(CCC(=O)O)C2
numeric readout: 1

chemical smiles: CC(C)Oc1ccc(-c2nc(-c3cccc4c3OCCN(CCCC(=O)O)C4)no2)cc1Cl
numeric readout: 8
